Molecular target: human CTPS1 (Homo sapiens, UniProt P17812)
Construct: FLAG (with GG linker); His8 (with GG linker); purchased Proteros biostructures GmbH
Sequence (P17812 whole entry): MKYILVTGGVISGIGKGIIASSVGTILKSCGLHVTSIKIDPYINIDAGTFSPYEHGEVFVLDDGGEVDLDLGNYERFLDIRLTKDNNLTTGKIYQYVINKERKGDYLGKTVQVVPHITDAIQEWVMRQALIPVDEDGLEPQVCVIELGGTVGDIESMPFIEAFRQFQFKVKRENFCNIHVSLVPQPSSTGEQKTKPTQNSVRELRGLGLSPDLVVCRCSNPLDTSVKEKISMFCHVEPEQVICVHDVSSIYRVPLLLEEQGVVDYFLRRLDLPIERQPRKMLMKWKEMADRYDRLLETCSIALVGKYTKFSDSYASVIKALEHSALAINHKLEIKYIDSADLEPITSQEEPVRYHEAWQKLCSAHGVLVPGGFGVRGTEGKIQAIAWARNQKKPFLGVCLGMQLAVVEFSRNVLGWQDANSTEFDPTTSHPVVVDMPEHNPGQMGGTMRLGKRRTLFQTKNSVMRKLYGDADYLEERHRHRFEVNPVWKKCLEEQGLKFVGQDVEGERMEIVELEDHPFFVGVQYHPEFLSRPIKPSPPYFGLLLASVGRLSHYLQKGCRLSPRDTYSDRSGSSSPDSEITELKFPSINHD
Test: Human CTPS1 enzyme inhibition, ADP-Glo Max assay
Assay type: biochemical
Conditions: ADP-Glo Max assay; Table 10; read-out: Human CTPS1 Enzyme Inhibition, IC50 grouped by potency range (CTPS1)
property.name: IC50

[[record]]
molecule = "CC(C)(C(=O)Nc1ncc(-c2cccnc2)cn1)c1csc(NS(=O)(=O)C2CC2)n1"
property_name = "IC50"
reported_measurement = "100 to 1000 nM"


For the molecule O=C(Cc1csc(NS(=O)(=O)C2CC2)n1)Nc1ccc(-c2cccnc2)cc1F , what IC50 is on record?
100 to 1000 nM

Request the reported IC50 associated with CC(C)(C(=O)Nc1ccc(-c2cncc(OCC(F)(F)F)c2)cc1F)c1csc(NS(=O)(=O)C2CC2)n1
100 to 1000 nM

Request the reported IC50 associated with CCOc1cncc(-c2ccc(NC(=O)C(N)c3csc(NS(=O)(=O)C4CC4)n3)cc2)n1 (stereo not drawn)
< 100 nM

Tell me the measured IC50 of COc1cc(-c2cccnc2)ccc1NC(=O)C(C)(C)c1csc(NS(=O)(=O)C2CC2)n1 , please.
< 100 nM

Looking for the measured IC50 of CC(C)Oc1cncc(-c2ccc(NC(=O)C(C)(C)c3csc(NS(=O)(=O)C4CC4)n3)c(F)c2)c1 , can you help?
< 100 nM

Record request: IC50 value, item CC(C)(C(=O)Nc1ccc(-c2cccnc2)cc1OC(F)(F)F)c1csc(NS(=O)(=O)C2CC2)n1
< 100 nM

What does the data say about its IC50? Entry: CC(C)(C(=O)Nc1ncc(-c2cncc(C#N)c2)cc1F)c1csc(NS(=O)(=O)C2CC2)n1
< 100 nM

Reported IC50, molecule COc1cc(-c2cncc(C)c2)ccc1NC(=O)C(C)(C)c1csc(NS(=O)(=O)C2CC2)n1 : ____
100 to 1000 nM

Return reported IC50; argument: CC(C)(C(=O)Nc1ccc(-c2cncc(C(F)(F)F)n2)cn1)c1csc(NS(C)(=O)=O)n1
< 100 nM

# query: IC50 of entry CC(C)(C(=O)Nc1ccc(-c2cccnc2)cn1)c1csc(NS(=O)(=O)C2CC2)n1
100 to 1000 nM

// IC50 lookup, key: CCOc1cncc(-c2ccc(NC(=O)C(C)(C)c3csc(NS(=O)(=O)CC(C)C)n3)cc2)n1
100 to 1000 nM

# lookup: IC50 of CC(C)(C(=O)Nc1ccc(-c2cncc(OC(F)F)c2)cn1)c1csc(NS(=O)(=O)C2CC2)n1
< 100 nM

Name the reported IC50 value associated with the molecule CC(C)(C(=O)Nc1ccc(-c2cncc(CO)n2)cc1)c1csc(NS(=O)(=O)C2CC2)n1
100 to 1000 nM

Quick one: IC50 for CC(C)(C(=O)Nc1ccc(-c2cncnc2)cn1)c1csc(NS(=O)(=O)C2CC2)n1 ?
100 to 1000 nM

Reported IC50, molecule CN(C(=O)C(C)(C)c1csc(NS(=O)(=O)C2CC2)n1)c1ccc(-c2cncc(C#N)c2)cc1 : ____
1000 to 10000 nM

Would you mind telling me what IC50 value was observed for CC(C)(C(=O)Nc1ccc(-c2cncc(Cl)n2)cc1)c1csc(NS(=O)(=O)C2CC2)n1 ?
< 100 nM

Value lookup for IC50; key = CN(C)CCOc1cncc(-c2ccc(NC(=O)C(C)(C)c3csc(NS(=O)(=O)C4CC4)n3)cc2)n1
1000 to 10000 nM

Returns the measured IC50 for the input molecule. Input: CC(C)(C(=O)Nc1ccc(-c2cncc(C#N)c2)cc1F)c1csc(NS(=O)(=O)C2CC2)n1
< 100 nM

I am curious: what IC50 value has been reported for CC(C)Oc1cncc(-c2ccc(NC(=O)C(C)(C)c3csc(NS(=O)(=O)C4CC4)n3)cc2)n1 ?
< 100 nM

Value lookup for IC50; key = Cc1ccncc1-c1ccc(NC(=O)Cc2csc(NS(=O)(=O)C3CC3)n2)cc1
100 to 1000 nM
